target-or-test-system: human PCSK9 (proprotein convertase subtilisin kexin type 9) (human, UniProt Q8NBP7 31-692)
Sequence (Q8NBP7 31-692 limits assumed): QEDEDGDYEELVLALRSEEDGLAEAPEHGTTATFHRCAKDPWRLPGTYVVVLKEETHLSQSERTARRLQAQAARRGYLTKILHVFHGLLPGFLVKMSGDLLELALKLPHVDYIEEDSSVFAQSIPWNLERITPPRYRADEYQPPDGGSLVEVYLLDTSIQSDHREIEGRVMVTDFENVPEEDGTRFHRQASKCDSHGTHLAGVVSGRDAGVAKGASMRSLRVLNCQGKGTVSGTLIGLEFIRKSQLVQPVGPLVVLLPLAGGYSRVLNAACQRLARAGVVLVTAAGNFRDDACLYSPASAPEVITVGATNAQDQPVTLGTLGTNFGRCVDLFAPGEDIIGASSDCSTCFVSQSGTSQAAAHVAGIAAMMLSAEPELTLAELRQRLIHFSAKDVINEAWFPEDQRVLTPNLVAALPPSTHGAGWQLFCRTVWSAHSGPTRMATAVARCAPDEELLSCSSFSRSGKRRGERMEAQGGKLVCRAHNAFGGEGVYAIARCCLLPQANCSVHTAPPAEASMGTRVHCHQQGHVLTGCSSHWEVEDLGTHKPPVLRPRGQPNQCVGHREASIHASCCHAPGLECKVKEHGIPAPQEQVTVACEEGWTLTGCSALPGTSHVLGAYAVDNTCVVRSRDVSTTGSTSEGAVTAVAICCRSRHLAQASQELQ
measurement-description: cell-based or functional assay

{"columns": ["binder", "LDLR Depletion (% inhibition at 75 nM) (%)"],
 "data": [
  ["2382E03 (designed binder) MGVSDVPRDLEVVAATPTSLLISWDAPAGDGYGYYRITYGETGGNSPVQEFTVPVSKGTATISGLKPGVDYTITVYAVEFDFPGAGYYHRPISINYRTEIDKPSQHHHHHH", 89.5],
  ["2381F11 (designed binder) MGVSDVPRDLEVVAATPTSLLISWDAPADGGYGYYRITYGETGGNSPVQEFTVPVSKSTATISGLKPGVDYTITVYAVEYTFPGAGYYHRPISINYRTEIDKPSQHHHHHH", 110]
]}
